Reference for the values: patent US4175081A

- Test system: Barnyard grass (BG)
- Assay Summary: Post-emergence herbicide test
- Format: in vivo
- Conditions Used: Echinochloa crus-galli, 336 h, 8 lb/acre, two weeks after treatment
Assign pest or weed control at 8966.8 g/ha to each entry below.
Could you give me the number in %? Just the number is fine.

Quick check: pest or weed control at 8966.8 g/ha on Barnyard grass (BG), item CNC(=O)Nc1nnc(-c2ccc(C)cc2)s1 ?
40

Another: CCCNC(=O)Nc1nnc(SC)s1
20

And CCc1nnc(NC(=O)N(C)C)s1 ?
20

Try this molecule too: CC(C)NC(=O)Nc1nnc(C(F)(F)F)s1
40

What would you report for CCc1nnc(NC(=O)NC)s1 ?
20

Thanks! And CNC(=O)Nc1nnc(C)s1 ?
20

----------
- Test system: Amaranth pigweed (PW)
- Assay Summary: Pre-emergence herbicide test
- Format: in vivo, Amaranthus retroflexus
- Conditions Used: 336 h, 1 lb/acre, two weeks after treatment
Please go through the items and note down their pest or weed control at 1120.85 g/ha.
Report the value in % with no unit label.

Reported pest or weed control at 1120.85 g/ha, compound CCSc1nnc(N(C)C(=O)NC)s1 [Example 89] : ____
100

Next compound: CCS(=O)(=O)c1nnc(N(C)C(=O)NC)s1 [Example 91]
90

Next up: CCCCSc1nnc(N(C)C(=O)NC)s1 [Example 90]
30

How about this compound: CCCCS(=O)(=O)c1nnc(N(C)C(=O)NC)s1 [Example 92]
10

----------
Would you mind telling me the reported pest or weed control at 8966.8 g/ha of each entry?
- Tested on: Turnip (TP)
- Assay Summary: Post-emergence herbicide test
- Assay type: in vivo, Brassica sp.
- Conditions Used: Brassica rapa, post-emergence, 336 h; 8 lb/acre; two weeks after treatment
Number only, in %; omit the unit.

Any idea what pest or weed control at 8966.8 g/ha was measured for CNC(=O)Nc1nnc(SCc2ccc(Cl)cc2)s1 [Example 87] ?
60

Do the same for CCCNC(=O)Nc1nnc(SC)s1 [Example 29] please
40

Next record, please: O=C(Nc1ccc(Cl)cc1)Nc1nnc(C(F)(F)F)s1 [Example 15]
50

For CNC(=O)N(C)c1nnc(C(F)(F)F)s1 [Example 36] then?
100

----------
- Test system: Barnyard grass (BG)
- Assay Summary: Post-emergence herbicide test
- Assay type: in vivo
- Conditions Used: Echinochloa crus-galli, 336 h, 4 lb/acre, two weeks after treatment
Give pest or weed control at 4483.4 g/ha for every item shown.
Write down the numeric answer in % and omit the unit.

Look up pest or weed control at 4483.4 g/ha with Barnyard grass (BG) for this compound: CNC(=O)Nc1nnc(SCC(=O)OC)s1
20

Please answer likewise for CNC(=O)Nc1nnc(SCC(C)=O)s1
30

Also CNC(=O)Nc1nnc(SCCc2ccccc2)s1 ?
20

Would you kindly repeat that for CNC(=O)N(C)c1nnc(C(C)(C)C)s1 ?
90

Moving on to the next compound: CCN(C(=O)NC)c1nnc(C(F)(F)F)s1
30

Cool, now CNC(=O)Nc1nnc(SCc2ccccc2)s1
70

What do we get for CCS(=O)(=O)c1nnc(NC(=O)NC)s1 ?
80

----------
- Test system: Amaranth pigweed (PW)
- Assay Summary: Pre-emergence herbicide test
- Type: in vivo, Amaranthus retroflexus
- Conditions Used: 336 h, 2 lb/acre, two weeks after treatment
Readout Kind: pest or weed control at 2241.7 g/ha (%)
Give just the number in %; leave the unit off.

// pest or weed control at 2241.7 g/ha lookup, key: CCCSc1nnc(N(C)C(=O)N(C)C)s1 [Example 66]
100

Lookup CCCCS(=O)(=O)c1nnc(N(C)C(=O)NC)s1 [Example 92]
30

Moving on to the next compound: CCSc1nnc(N(C)C(=O)NC)s1 [Example 89]
100

What do you get for CNC(=O)N(C)c1nnc(C(C)(C)C)s1 [Example 42] ?
100

Likewise for CNC(=O)N(C)c1nnc(C(F)(F)F)s1 [Example 36] ?
90

Same thing, different compound: CNC(=O)Nc1nnc(C(C)(C)C)s1 [Example 86]
100

Would you kindly repeat that for CNC(=O)Nc1nnc(C(F)(F)C(F)(F)F)s1 [Example 68] ?
100

Same lookup for CCS(=O)(=O)c1nnc(N(C)C(=O)NC)s1 [Example 91] , please.
100

What do you have for CNC(=O)Nc1nnc(S(C)(=O)=O)s1 [Example 33] ?
50

Another compound to look at: CCCCSc1nnc(N(C)C(=O)NC)s1 [Example 90]
100

Next compound: CCN(C(=O)NC)c1nnc(C(F)(F)F)s1 [Example 37]
90

----------
- System: Turnip (TP)
- Assay Summary: Pre-emergence herbicide test
- Assay type: in vivo, Brassica sp.
- Conditions Used: Brassica rapa, pre-emergence, 336 h; 0.5 lb/acre; two weeks after treatment
Readout Kind: pest or weed control at 560.425 g/ha (%)
Quick note: give the figure in %, leave out the unit.

// query pest or weed control at 560.425 g/ha value for entry CCCCSc1nnc(N(C)C(=O)NC)s1 [Example 90]
10

Another compound to look at: CCS(=O)(=O)c1nnc(N(C)C(=O)NC)s1 [Example 91]
60

Now consider CCCCS(=O)(=O)c1nnc(N(C)C(=O)NC)s1 [Example 92] .
10

Also check CCSc1nnc(N(C)C(=O)NC)s1 [Example 89]
30

----------
- System: Bean (BN)
- Assay Summary: Pre-emergence herbicide test
- Format: in vivo, Phaseolus vulgaris var. Black Valentine
- Conditions Used: Phaseolus vulgaris, 336 h, 8 lb/acre, two weeks after treatment
Readout Kind: pest or weed control at 8966.8 g/ha (%)
The reply should contain only the number, in %.

What does the record list as pest or weed control at 8966.8 g/ha for CNC(=O)Nc1nnc(SCc2ccc(Cl)cc2)s1 ?
100

// query: CNC(=O)Nc1nnc(CC(C)C)s1
100

Input CNC(=O)Nc1nnc(-c2ccc(Cl)cc2)s1
50

Record: O=C(Nc1ccc(Cl)cc1)Nc1nnc(C(F)(F)F)s1
30

Could you do the same for CNC(=O)Nc1nnc(C)s1 , please?
50

And then CNC(=O)Nc1nnc(-c2ccc(C)cc2)s1 , what is it?
80

----------
- Test system: Bean (BN)
- Assay Summary: Post-emergence herbicide test
- Assay type: in vivo, Phaseolus vulgaris var. Black Valentine
- Conditions Used: Phaseolus vulgaris, post-emergence, 336 h; 8 lb/acre; two weeks after treatment
Readout Kind: pest or weed control at 8966.8 g/ha (%)
Record the value in %, omitting the unit from your answer.

Tell me the measured pest or weed control at 8966.8 g/ha of CCc1nnc(NC(=O)N(C)C)s1 , please.
50

For CNC(=O)Nc1nnc(C(C)(C)C)s1 then?
100

# repeat for CCNC(=O)Nc1nnc(SC)s1
50

Try this compound next: CCc1nnc(NC(=O)NC)s1
60

Same question for O=C(Nc1ccccc1)Nc1nnc(C(F)(F)F)s1 please.
100

Do the same for CNC(=O)Nc1nnc(-c2ccccc2)s1 please
60

And the next one, CCCNC(=O)Nc1nnc(SC)s1 ?
100

Can you handle CCNC(=O)Nc1nnc(C(F)(F)F)s1 next?
70

Now this one: CCCSc1nnc(N(C)C(=O)NC)s1
100

Consider next the compound CCSCCSc1nnc(NC(=O)NC)s1 in the same way.
100

Next up: C=CCNC(=O)Nc1nnc(C(F)(F)F)s1
100

Check CNC(=O)Nc1nnc(-c2ccc(Cl)cc2)s1 too.
50

Again, but for CNC(=O)Nc1nnc(-c2ccccc2Cl)s1
80

Consider next the compound O=C(Nc1ccc(Cl)c(Cl)c1)Nc1nnc(C(F)(F)F)s1 in the same way.
40

Entry to check: CNC(=O)Nc1nnc(-c2cccc(Cl)c2)s1
20

Record: CNC(=O)Nc1nnc(-c2ccc(Cl)cc2Cl)s1
100

Entry CSc1nnc(NC(=O)NC(C)C)s1 please
100

// next record CNC(=O)N(C)c1nnc(C(C)(C)C)s1
100

Also check CNC(=O)Nc1nnc(COC)s1
100

What would you report for CSc1nnc(N(C)C(=O)N(C)C)s1 ?
100

O=C(Nc1ccc(Cl)cc1)Nc1nnc(C(F)(F)F)s1 ?
40

Another compound: CCSc1nnc(NC(=O)NC)s1
100

Request: CNC(=O)Nc1nnc(C(F)(F)Cl)s1
100

Please do the same for CNC(=O)N(C)c1nnc(C(F)(F)F)s1 as well.
100

----------
- System: Yellow foxtail grass (YF)
- Assay Summary: Pre-emergence herbicide test
- Format: in vivo, Setaria glauca
- Conditions Used: Setaria, 336 h, 8 lb/acre, two weeks after treatment
Readout Kind: pest or weed control at 8966.8 g/ha (%)
Write it as a number; the unit % goes unstated.

Fill in the blank: the reported pest or weed control at 8966.8 g/ha of CCSc1nnc(NC(=O)NC)s1 is ____.
90

Likewise for CNC(=O)Nc1nnc(-c2ccccc2)s1 ?
20

For CNC(=O)Nc1nnc(S(C)(=O)=O)s1 then?
80

CNC(=O)N(C)c1nnc(C(C)(C)C)s1 , same question.
90

Repeat for the following compound: CNC(=O)Nc1nncs1
10

// next record CCNC(=O)Nc1nnc(SC)s1
30
